Biological target: Carbonic anhydrase 2 (Homo sapiens)
Assay: compounds binding carbonic anhydrase 2 – biochemical, small-molecule microarray, Alexa647-labelled CAII, profiling panel (AID 1122)
Details: CAII-A647 binding fluorescence, higher = more signal

{"columns": ["molecule", "composite z-score"],
 "data": [
  ["[N-]=[N+]=Nc1ccccc1C[C@]1(C(=O)N2CCCCC2)COC(c2ccc(OCCCO)cc2)=N1", 0.613],
  ["COCCOC(=O)N1C(=O)[C@@]2(c3cc(C#CC4(O)CCCCCC4)ccc31)[C@H](C(=O)Nc1nc3ccccc3s1)[C@H]1C(=O)O[C@H](c3ccccc3)[C@H](c3ccccc3)N1[C@@H]2c1ccccc1OCCO", 0.598],
  ["CCCCC(=C=CC[C@@H](O)c1ccc(CO)o1)CCO", 0.595],
  ["C=CCNC(=O)[C@@H]1[C@H]2C(=O)O[C@H](c3ccccc3)[C@H](c3ccccc3)N2[C@H](c2ccc(OCCO)cc2)[C@@]12C(=O)N(C(=O)OCCOC)c1ccc(C#CCC(C(=O)OC)C(=O)OC)cc12", 0.637],
  ["O=c1cccc(-c2ccccc2Cl)o1", -0.0836],
  ["C=CCNC(=O)[C@H]1[C@@H]2C(=O)O[C@@H](c3ccccc3)[C@@H](c3ccccc3)N2[C@@H](c2ccc(OCCO)cc2)[C@]12C(=O)Nc1ccc(C#CCC(C(=O)OC)C(=O)OC)cc12", 0.328],
  ["CC(C)NC(=O)[C@@]1(Cc2ccccc2I)c2ccccc2C(=O)N(Cc2ccccc2Cl)[C@H]1c1ccc(CO)cc1", 0.506],
  ["CCCCCN1CC=CC23O[C@@H]4C=CCOC(=O)[C@@H]4[C@H]2C(=O)N(C(C)CO)[C@@H]3C1=O (stereo not given in full)", 0.863],
  ["C=CCN1Cc2ccccc2[C@@H]2OC(c3ccc(OCCCO)cc3)=N[C@]2(CCS(=O)(=O)c2ccccc2)C1=O", 0.254],
  ["C=CCN1C(=O)[C@]2(O[C@H](CCO)[C@@H]([Si](C)(C)c3ccc(OC)cc3)[C@@H]2C)c2cc(N(C=O)c3ccccc3)ccc21", 0.561]
]}
